conditions: human gut metagenome, 24 h, 2 µM; further: call rule not given here
Result type: Bacterial Biotransformation

C[C@@H](c1ncncc1F)[C@](O)(Cn1cncn1)c1ccc(F)cc1F [VORICONAZOLE] ... Compound metabolized
COc1ccc([C@@H]2Sc3ccccc3N(CCN(C)C)C(=O)[C@@H]2OC(C)=O)cc1 [DILTIAZEM] ... Compound metabolized
CC[C@H](C)C(=O)O[C@H]1CCC=C2C=C[C@H](C)[C@H](CC[C@@H]3C[C@@H](O)CC(=O)O3)[C@H]21 [MEVASTATIN] ... Compound NOT metabolized
CCOc1ccccc1OCCN[C@H](C)Cc1ccc(OC)c(S(N)(=O)=O)c1.Cl [TAMSULOSIN HYDROCHLORIDE] ... Compound NOT metabolized
O=C(O)CCC(=O)O.O=C(O[C@H]1CN2CCC1CC2)N1CCc2ccccc2[C@@H]1c1ccccc1 [SOLIFENACIN SUCCINATE] ... Compound NOT metabolized
CCN1CCCC1CNC(=O)c1cc(S(=O)(=O)CC)c(N)cc1OC (stereo not drawn) [AMISULPRIDE] ... Compound NOT metabolized
CC(C)(C)N.CCC[C@H](N[C@@H](C)C(=O)N1[C@H](C(=O)O)C[C@@H]2CCCC[C@@H]21)C(=O)OCC [PERINDOPRIL ERBUMINE] ... Compound metabolized
CCN(CC)CCNC(=O)c1cc(S(C)(=O)=O)ccc1OC [TIAPRIDE] ... Compound NOT metabolized
CCOC(=O)C1=C[C@]2(CC)CCCN3CCc4c(n1c1ccccc41)[C@@H]32 [VINPOCETINE] ... Compound NOT metabolized
CN(C)CCC=C1c2ccccc2COc2ccccc21 [DOXEPIN] ... Compound NOT metabolized

Quick one: Bacterial Biotransformation of COc1ccc2cc([C@H](C)C(=O)O)ccc2c1 [NAPROXEN] ?
Compound NOT metabolized

What about CN1[C@@H]2CC[C@H]1C[C@@H](OC(=O)[C@H](CO)c1ccccc1)C2 [HYOSCYAMINE] ?
Compound NOT metabolized

What about COc1ccccc1OCCNCC(O)COc1cccc2[nH]c3ccccc3c12 (stereo not drawn) [CARVEDILOL] ?
Compound metabolized

What about COc1ccnc(C[S+]([O-])c2nc3ccc(OC(F)F)cc3[nH]2)c1OC (stereo not drawn) [PANTOPRAZOLE] ?
Compound metabolized

What about CCN(C(C)=O)c1cccc(-c2ccnc3c(C#N)cnn23)c1 [ZALEPLON] ?
Compound NOT metabolized

What about N=C(N)NC(=O)Cc1c(Cl)cccc1Cl [GUANFACINE] ?
Compound NOT metabolized

What about COc1cc(C(=O)NCc2ccc(OCCN(C)C)cc2)cc(OC)c1OC [TRIMETHOBENZAMIDE] ?
Compound NOT metabolized

What about CC(=O)Nc1ccc(OC(C)=O)cc1 [DIACETAMATE] ?
Compound metabolized

----------
test: The drug is tested on Z-010 corresponding to metagenome with ENA study accession number: PRJEB37062 and ENA sample accession number: ERS12561810 for biotransformation under anaerobic condition. The drug concentrations were measured over 9 timepoints collected between 0 and 24 hours of incubation by liquid-chromatography-coupled mass spectrometry (LC–MS); conditions: 2 µM
Result type: Bacterial Biotransformation

CN1[C@@H]2CC[C@H]1C[C@@H](OC(=O)c1c[nH]c3ccccc13)C2 ... Compound NOT metabolized
O=C(O)c1cc(/N=N/c2ccc(S(=O)(=O)Nc3ccccn3)cc2)ccc1O ... Compound metabolized
COC(=O)[C@H](c1ccccc1Cl)N1CCc2sccc2C1.O=S(=O)(O)O [CLOPIDOGREL BISULFATE] ... Compound metabolized
CCN(C(C)=O)c1cccc(-c2ccnc3c(C#N)cnn23)c1 ... Compound metabolized
CN(C)CCC=C1c2ccccc2COc2ccccc21 [DOXEPIN] ... Compound NOT metabolized
Cc1ccccc1C(OCCN(C)C)c1ccccc1.O=C(O)CC(O)(CC(=O)O)C(=O)O (stereo not drawn) [ORPHENADRINE CITRATE] ... Compound NOT metabolized
CC(C)(C)NC(=O)[C@H]1CC[C@H]2[C@@H]3CC[C@H]4NC(=O)C=C[C@]4(C)[C@H]3CC[C@]12C [FINASTERIDE] ... Compound metabolized

# context switch: different compound, same Bacterial Biotransformation
Quick one: Bacterial Biotransformation of CC(C)(C)NCC(O)c1cc(Cl)c(N)c(Cl)c1 (stereo not drawn) ?
Compound NOT metabolized

----------
test: The drug is tested on Z-006 corresponding to mouse gut metagenome with ENA study accession number: PRJEB37062 and ENA sample accession number: ERS12561806 for biotransformation under anaerobic condition. The drug concentrations were measured over 9 timepoints collected between 0 and 24 hours of incubation by liquid-chromatography-coupled mass spectrometry (LC–MS); details: 2 µM
Result type: Bacterial Biotransformation

Worked set:
CCN(CC)CCNC(=O)c1cc(S(C)(=O)=O)ccc1OC [TIAPRIDE] ... Compound NOT metabolized
CC(C)(C)NCC(O)c1cc(Cl)c(N)c(Cl)c1 (configuration not stated) [CLENBUTEROL] ... Compound NOT metabolized
COC(=O)[C@H](c1ccccc1Cl)N1CCc2sccc2C1.O=S(=O)(O)O [CLOPIDOGREL BISULFATE] ... Compound metabolized
CN1CCN2c3ccccc3Cc3ccccc3C2C1 (configuration not stated) [MIANSERIN] ... Compound NOT metabolized

# context switch: different compound, same Bacterial Biotransformation
Quick one: Bacterial Biotransformation of CC[C@@]1(O)C(=O)OCc2c1cc1n(c2=O)Cc2cc3c(CN(C)C)c(O)ccc3nc2-1 [TOPOTECAN] ?
Compound NOT metabolized

----------
test: The drug is tested on Z-001 corresponding to mouse gut metagenome with ENA study accession number: PRJEB37062 and ENA sample accession number: ERS12561801 for biotransformation under anaerobic condition. The drug concentrations were measured over 9 timepoints collected between 0 and 24 hours of incubation by liquid-chromatography-coupled mass spectrometry (LC–MS); conditions: 2 µM
Result type: Bacterial Biotransformation

Worked set:
C#C[C@]1(OC(C)=O)CC[C@H]2[C@@H]3CCC4=CC(=O)CC[C@@H]4[C@H]3CC[C@@]21C [NORETHINDRONE ACETATE] ... Compound metabolized
CN(C/C=C/C#CC(C)(C)C)Cc1cccc2ccccc12 [TERBINAFINE] ... Compound NOT metabolized
CC[C@@]1(O)C(=O)OCc2c1cc1n(c2=O)Cc2cc3c(CN(C)C)c(O)ccc3nc2-1 [TOPOTECAN] ... Compound NOT metabolized
c1ccc2[nH]c(-c3cscn3)nc2c1 [THIABENDAZOLE] ... Compound NOT metabolized
CC(=O)SCC(Cc1ccccc1)C(=O)NCC(=O)OCc1ccccc1 (stereo not drawn) [RACECADOTRIL] ... Compound metabolized
CCCN(CCC)CCc1cccc2c1CC(=O)N2 [ROPINIROLE] ... Compound NOT metabolized
Nc1nnc(-c2cccc(Cl)c2Cl)c(N)n1 [LAMOTRIGINE] ... Compound NOT metabolized
CC(C)(C)NC(=O)[C@H]1CC[C@H]2[C@@H]3CC[C@H]4NC(=O)C=C[C@]4(C)[C@H]3CC[C@]12C [FINASTERIDE] ... Compound NOT metabolized

Quick one: Bacterial Biotransformation of OCCN(CCO)c1nc(N2CCCCC2)c2nc(N(CCO)CCO)nc(N3CCCCC3)c2n1 [DIPYRIDAMOLE] ?
Compound NOT metabolized

What about CCOC(=O)[C@H](CCc1ccccc1)N[C@@H](C)C(=O)N1CCC[C@H]1C(=O)O.O=C(O)/C=C\C(=O)O [ENALAPRIL MALEATE] ?
Compound NOT metabolized

What about CC[C@H](C)C(=O)O[C@H]1CCC=C2C=C[C@H](C)[C@H](CC[C@@H]3C[C@@H](O)CC(=O)O3)[C@H]21 [MEVASTATIN] ?
Compound NOT metabolized

What about CCOc1ccc2nc(S(N)(=O)=O)sc2c1 [ETHOXZOLAMIDE] ?
Compound NOT metabolized

What about CCN(CC)C(=O)C1(c2ccccc2)CC1CN (stereo not drawn) ?
Compound NOT metabolized

What about O=C1C(CC[S+]([O-])c2ccccc2)C(=O)N(c2ccccc2)N1c1ccccc1 (stereo not drawn) [SULFINPYRAZONE] ?
Compound NOT metabolized

What about CN[C@H]1CC[C@@H](c2ccc(Cl)c(Cl)c2)c2ccccc21 [SERTRALINE] ?
Compound NOT metabolized

----------
conditions: human gut metagenome, 24 h, 2 µM
Result type: Bacterial Biotransformation

Worked set:
CC(C)c1nc(N(C)S(C)(=O)=O)nc(-c2ccc(F)cc2)c1/C=C/[C@@H](O)C[C@@H](O)CC(=O)[O-].CC(C)c1nc(N(C)S(C)(=O)=O)nc(-c2ccc(F)cc2)c1/C=C/[C@@H](O)C[C@@H](O)CC(=O)[O-].[Ca+2] [ROSUVASTATIN CALCIUM] ... Compound metabolized
CCCN(CCC)CCc1cccc2c1CC(=O)N2 [ROPINIROLE] ... Compound NOT metabolized
CC(C)[C@H]1CC[C@H](C(=O)N[C@H](Cc2ccccc2)C(=O)O)CC1 [NATEGLINIDE] ... Compound metabolized
CC1Cc2ccccc2N1NC(=O)c1ccc(Cl)c(S(N)(=O)=O)c1 (stereo not drawn) [INDAPAMIDE] ... Compound NOT metabolized
CC(C)(C)NC[C@H](O)COc1nsnc1N1CCOCC1.O=C(O)/C=C\C(=O)O [TIMOLOL MALEATE] ... Compound NOT metabolized
Cc1cc(C)cc(OCC2CNC(=O)O2)c1 (stereo not drawn) [METAXALONE] ... Compound metabolized
O=C(NC(Cc1cc(=O)[nH]c2ccccc12)C(=O)O)c1ccc(Cl)cc1 (stereo not drawn) [REBAMIPIDE] ... Compound NOT metabolized
C[C@@H](c1ncncc1F)[C@](O)(Cn1cncn1)c1ccc(F)cc1F [VORICONAZOLE] ... Compound metabolized

Quick one: Bacterial Biotransformation of O=C1CC2(CCCC2)CC(=O)N1CCCCN1CCN(c2ncccn2)CC1 [BUSPIRONE] ?
Compound NOT metabolized

What about CCOC(=O)[C@H](CCc1ccccc1)N[C@@H](C)C(=O)N1Cc2ccccc2C[C@H]1C(=O)O ?
Compound NOT metabolized

What about CSc1ccc2c(c1)C(N1CCN(C)CC1)Cc1ccccc1S2.O=C(O)/C=C\C(=O)O (stereo not drawn) ?
Compound NOT metabolized

What about CC(C)c1c(CN(C)C(C)Cc2ccccc2)n(C)n(-c2ccccc2)c1=O (stereo not drawn) [FAMPROFAZONE] ?
Compound metabolized

What about CCN(CC)CCNC(=O)c1cc(S(C)(=O)=O)ccc1OC [TIAPRIDE] ?
Compound NOT metabolized

What about COc1ccc2c(c1)c(CC(=O)O)c(C)n2C(=O)c1ccc(Cl)cc1 [INDOMETHACIN] ?
Compound metabolized

What about CC12CC3CC(C)(C1)CC(N)(C3)C2 [MEMANTINE] ?
Compound NOT metabolized

What about CCOC(=O)C1=C[C@]2(CC)CCCN3CCc4c(n1c1ccccc41)[C@@H]32 [VINPOCETINE] ?
Compound metabolized
